Target: PDGFRB(DKIN) (PDGFR-β) (Homo sapiens, UniProt P09619)
Construct: PDGFRB(DKIN)
Assay: Phage-display competitive binding assay, PDGFRB(DKIN)
Conditions: T7 phage displaying human PDGFR-β, DKIN construct; read-out: Binding Assay: PDGFRB(DKIN)
Method: The term “ND” represents non-determined values. Briefly, T7 phage displaying human PDGFR-β were incubated with an affinity matrix coated with known PDGFR-β inhibitor in the presence of various concentrations of the soluble competitor molecules.
pKd: −log10 of the molar value.
This listing pairs compounds with measured pKd.

1. CC(C)(C)c1cc(NC(=O)Nc2ccc(NC(=O)c3c(F)cccc3C(F)(F)F)cc2)no1; 5.00 to 6.00
2. CC(C)(C)c1cc(NC(=O)Nc2ccc(OCC3CC3)cc2)no1; > 7.00
3. NC(=O)c1c(NC(=O)Nc2ccc(Cl)c(Cl)c2)sc2c1CCCC2; < 5.00
4. COC(=O)c1cccc(Sc2ncc(NC(=O)Nc3cc(C(C)(C)C)on3)s2)c1; 6.00 to 7.00
5. COc1ccc(NC(=O)Nc2cc(C(C)(C)C)on2)cc1; 6.00 to 7.00

# input Report measured pKd; entry is CC(C)(C)c1cc(NC(=O)Nc2ccc(NC(=O)C3=Cc4cc(F)cc(S(C)(=O)=O)c4C3)cc2)no1
# output 5.00 to 6.00

# input Respond only with pKd recorded for Cn1nc(C(F)(F)F)c2cc(C(=O)Nc3ccc(NC(=O)Nc4cc(C(C)(C)C)on4)cc3)sc21
# output < 5.00

# input State its pKd: Cc1c(NC(=O)Nc2cc(C(C)(C)C)on2)c(=O)n(-c2ccccc2)n1C
# output < 5.00

---

Target: PDGFRB(DKIN) (PDGFR-β) (Homo sapiens)
Construct: PDGFRB(DKIN)
Assay: Phage-display competitive binding assay, PDGFRB(DKIN)
Conditions: T7 phage displaying human PDGFR-β, DKIN construct; read-out: Binding Assay: PDGFRB(DKIN)
measuredMetric: Kd

Answered cases to consult:
1. CC(C)(C)c1cc(NC(=O)Nc2ccc(C(=O)/C=C/c3ccncc3)cc2)no1; 0.1 to 1 µM
2. CC(=O)Oc1cccnc1C(=O)Nc1ccc(NC(=O)Nc2cc(C(C)(C)C)on2)cc1 [Compound N79]; < 0.1 µM
3. COc1ccnc(Nc2ccc(C(=O)Nc3ccc(NC(=O)Nc4cc(C(C)(C)C)on4)cc3)cc2)n1 [Compound N51]; < 0.1 µM
4. CC(C)(C)c1cc(NC(=O)Nc2ccc(C(=O)Nc3ccc(OCC4CCC4)cc3)cc2)no1 [Compound N100]; 0.1 to 1 µM
5. COc1cccc(-c2ccc(C(=O)Nc3ccc(NC(=O)Nc4cc(C(C)(C)C)on4)cc3)o2)c1 [Compound N105]; 0.1 to 1 µM

# input Look up and report measured Kd for this entry: CC(C)(C)c1cc(NC(=O)Nc2ccc(OCc3ccc(F)cc3Cl)cc2)no1 [Compound G18]
# output < 0.1 µM

# input Fill in reported Kd for this entry: CC(C)(C)c1cc(NC(=O)Nc2ccc(NC(=O)c3ccc(Cl)nc3Cl)cc2)no1 [Compound N130]
# output 0.1 to 1 µM

# input // fetch Kd given entry CC(C)(C)c1cc(NC(=O)Nc2ccc(NC(=O)c3cnc4ccccc4n3)cc2)no1 [Compound N149]
# output 1 to 10 µM

# input // Input: CC(C)(C)c1cc(NC(=O)Nc2ccc(OCc3ccc(-c4ccccc4)cc3)cc2)no1 [Compound G56] . Output its Kd only.
# output < 0.1 µM
